# tgt: Protein cereblon/Cyclin-dependent kinase 9 (Homo sapiens, UniProt P50750+Q96SW2)
# Sequence (P50750 whole entry, looked up): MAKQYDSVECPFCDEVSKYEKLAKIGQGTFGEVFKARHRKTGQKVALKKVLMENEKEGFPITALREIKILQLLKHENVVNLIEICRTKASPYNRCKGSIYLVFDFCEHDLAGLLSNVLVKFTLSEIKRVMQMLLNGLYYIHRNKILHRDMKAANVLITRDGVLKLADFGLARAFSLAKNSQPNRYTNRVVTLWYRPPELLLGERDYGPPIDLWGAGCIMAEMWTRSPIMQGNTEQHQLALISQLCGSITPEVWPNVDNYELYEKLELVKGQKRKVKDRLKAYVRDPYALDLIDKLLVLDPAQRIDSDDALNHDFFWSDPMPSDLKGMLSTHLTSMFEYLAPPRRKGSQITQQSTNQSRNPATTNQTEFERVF
# Sequence (Q96SW2 whole entry, looked up): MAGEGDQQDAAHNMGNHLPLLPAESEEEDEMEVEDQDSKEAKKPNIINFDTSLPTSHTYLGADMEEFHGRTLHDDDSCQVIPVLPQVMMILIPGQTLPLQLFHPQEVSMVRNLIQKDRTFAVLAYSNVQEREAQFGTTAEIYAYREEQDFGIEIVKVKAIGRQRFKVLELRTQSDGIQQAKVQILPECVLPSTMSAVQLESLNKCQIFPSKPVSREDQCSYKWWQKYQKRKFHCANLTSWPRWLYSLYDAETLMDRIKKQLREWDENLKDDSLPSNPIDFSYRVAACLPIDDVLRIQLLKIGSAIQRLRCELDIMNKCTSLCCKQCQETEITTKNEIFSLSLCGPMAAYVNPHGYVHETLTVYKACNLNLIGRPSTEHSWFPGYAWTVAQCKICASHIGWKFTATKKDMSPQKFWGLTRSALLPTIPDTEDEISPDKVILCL
# assay-text: Protac activity at CRBN/CDK9 in human MV4-11 cells assessed as reduction in MCL-1 level at 1 uM measured after 6 hrs by Western blot analysis
# Format: cell-based
The source made the active and inactive calls. No cut-off for these calls is given here.
API: response.call in T = active, F = inactive

Lab log entry: O=C(COc1cccc2c1C(=O)N(C1CCC(=O)NC1=O)C2=O)NCCCCCCCC(=O)N1CCC(NC(=O)c2n[nH]cc2NC(=O)c2c(Cl)cccc2Cl)CC1 (centres undefined) — outcome as called in the assay?
T

Lab log entry: O=C(COc1cccc2c1C(=O)N(C1CCC(=O)NC1=O)C2=O)NCCCCCCCCCCC(=O)N1CCC(NC(=O)c2n[nH]cc2NC(=O)c2c(Cl)cccc2Cl)CC1 (centres undefined) — outcome as called in the assay?
T

Lab log entry: O=C(COc1cccc2c1C(=O)N(C1CCC(=O)NC1=O)C2=O)NCCCCCCCCCCCC(=O)N1CCC(NC(=O)c2n[nH]cc2NC(=O)c2c(Cl)cccc2Cl)CC1 (centres undefined) — outcome as called in the assay?
T

Lab log entry: O=C1CCC(N2C(=O)c3cccc(NCC(=O)N4CCC(NC(=O)c5n[nH]cc5NC(=O)c5c(Cl)cccc5Cl)CC4)c3C2=O)C(=O)N1 (centres undefined) — outcome as called in the assay?
F

###

# tgt: Protein cereblon/Cyclin-dependent kinase 9 (Homo sapiens, UniProt P50750+Q96SW2)
# assay-text: Protac activity at CRBN/CDK9 in human MV4-11 cells assessed as CDK9 degradation at 1 uM measured after 6 hrs by Western blot analysis
# Assay type: cell-based
Activity calls are given as the source filed them. The calls are words filed in the database; no cut-off is given here.
API: response.call in active, inactive

Lab log entry: O=C(COc1cccc2c1C(=O)N(C1CCC(=O)NC1=O)C2=O)NCCCCCCCCCCCC(=O)N1CCC(NC(=O)c2n[nH]cc2NC(=O)c2c(Cl)cccc2Cl)CC1 (configuration not stated) — outcome as called in the assay?
active

Lab log entry: O=C1CCC(N2C(=O)c3cccc(NCC(=O)N4CCC(NC(=O)c5n[nH]cc5NC(=O)c5c(Cl)cccc5Cl)CC4)c3C2=O)C(=O)N1 (configuration not stated) — outcome as called in the assay?
inactive

Lab log entry: O=C1CCC(N2C(=O)c3cccc(OCC(=O)N4CCC(NC(=O)c5n[nH]cc5NC(=O)c5c(Cl)cccc5Cl)CC4)c3C2=O)C(=O)N1 (configuration not stated) — outcome as called in the assay?
inactive

Lab log entry: O=C(COc1cccc2c1C(=O)N(C1CCC(=O)NC1=O)C2=O)NCCCCCCCC(=O)N1CCC(NC(=O)c2n[nH]cc2NC(=O)c2c(Cl)cccc2Cl)CC1 (configuration not stated) — outcome as called in the assay?
active

Lab log entry: O=C(CNc1cccc2c1C(=O)N(C1CCC(=O)NC1=O)C2=O)NCCCCCCCCCCC(=O)N1CCC(NC(=O)c2n[nH]cc2NC(=O)c2c(Cl)cccc2Cl)CC1 (configuration not stated) — outcome as called in the assay?
active

Lab log entry: O=C(COc1cccc2c1C(=O)N(C1CCC(=O)NC1=O)C2=O)NCCC(=O)N1CCC(NC(=O)c2n[nH]cc2NC(=O)c2c(Cl)cccc2Cl)CC1 (configuration not stated) — outcome as called in the assay?
inactive

Lab log entry: O=C(COc1cccc2c1C(=O)N(C1CCC(=O)NC1=O)C2=O)NCCCCCCCCCCC(=O)N1CCC(NC(=O)c2n[nH]cc2NC(=O)c2c(Cl)cccc2Cl)CC1 (configuration not stated) — outcome as called in the assay?
active
